MEASURED_ON: canine FcRn (FcRn large subunit with canine beta-2-microglobulin) (canine)
PROTOCOL: SPR pH 7.4, FcRn coupled at high density, IgG 400 nM
PARAMETER_MEASURED: pKd
Interpret pKd as the negative base-10 log of the concentration measured in mol/L.

// below: answered binders
anti-NGF canine IgGB antibody, Fc variant N434R + T286L (antibody, part only; not given: Anti-NGF variable domains, not shown: another chain or arm of the molecule) Fc: APEMLGGPSVFIFPPKPKDTLLIARTPEVTCVVVDLDPEDPEVQISWFVDGKQMQLAKTQPREEQFNGTYRVVSVLPIGHQDWLKGKQFTCKVNNKALPSPIERTISKARGQAHQPSVYVLPPSREELSKNTVSLTCLIKDFFPPDIDVEWQSNGQQEPESKYRTTPPQLDEDGSYFLYSKLSVDKSRWQRGDTFICAVMHEALHRHYTQESLSHSPGK: 6.87
anti-NGF canine IgGB antibody, Fc variant A426Y + N434R (antibody, part only; not given: anti-NGF variable domains and light chain, not shown: another chain or arm of the molecule; small tags and cut ends) Fc: APEMLGGPSVFIFPPKPKDTLLIARTPEVTCVVVDLDPEDPEVQISWFVDGKQMQTAKTQPREEQFNGTYRVVSVLPIGHQDWLKGKQFTCKVNNKALPSPIERTISKARGQAHQPSVYVLPPSREELSKNTVSLTCLIKDFFPPDIDVEWQSNGQQEPESKYRTTPPQLDEDGSYFLYSKLSVDKSRWQRGDTFICYVMHEALHRHYTQESLSHSPGK: 6.89

Then this binder:
## Task What value of pKd has been reported for the following binder? anti-NGF canine IgGB antibody, Fc variant N434R + Y436H (antibody, part only; not given: Anti-NGF variable domains, not shown: another chain or arm of the molecule) Fc: APEMLGGPSVFIFPPKPKDTLLIARTPEVTCVVVDLDPEDPEVQISWFVDGKQMQTAKTQPREEQFNGTYRVVSVLPIGHQDWLKGKQFTCKVNNKALPSPIERTISKARGQAHQPSVYVLPPSREELSKNTVSLTCLIKDFFPPDIDVEWQSNGQQEPESKYRTTPPQLDEDGSYFLYSKLSVDKSRWQRGDTFICAVMHEALHRHHTQESLSHSPGK
## Result 6.42
